PROTOCOL_SUMMARY: Solubility test: solubility in water
Type: physicochemical
PROPERTY_MEASURED: solubility

>>> result("CCCCCCCCCCCCCCCCC(=O)Nc1ccn([C@@H]2O[C@H](CO)[C@@H](O)[C@@H]2O)c(=O)n1")
"< 10 µg/mL"
>>> result("CCCCCCCCCCCCCCCCCCCCCCCCCCCC(=O)Nc1ccn([C@@H]2O[C@H](CO)[C@@H](O)[C@@H]2O)c(=O)n1")
"< 10 µg/mL"

Next up:
Qu. Consider the compound "CCCCCCCCCCCCCCCCCC(=O)Nc1ccn([C@@H]2O[C@H](CO)[C@@H](O)[C@@H]2O)c(=O)n1" and give its measured solubility.
Ans. < 10 µg/mL
